Parameter Percentage of effect: see the listing below.
system: S. mansoni juvenile forms; assay: Speed-of-action assay in juvenile forms; format: cell-based, Schistosoma mansoni; conditions: juvenile forms, 4 h, 1 μM
Numbers only; they are read as %.

Known results for compounds:
CC#Cc1ccc(C(=O)Nc2ccc(C3CC3N)cc2)cc1.Cl (centres unmarked); 20
NC1CC1c1ccc(NC(=O)c2ccc(-c3ccccc3)cc2)cc1 (centres unmarked); 20
Cl.NC1CC1c1ccc(NC(=O)c2ccc(C#CC3CC3)cc2)cc1 (centres unmarked); 20
C#Cc1ccc(C(=O)Nc2ccc(C3CC3N)cc2)cc1 (centres unmarked) [MC3935, reference compound]; 16.67

# query: Percentage of effect of entry CCCc1ccc(C(=O)Nc2ccc(C3CC3N)cc2)cc1.Cl (centres unmarked) 23.33
